Assign MIC to each entry below.
# Tested on: Haemophilus influenzae
# Protocol Details: In vitro antibacterial activity against DILL strain of Haemophilus influenzae.
# Assay type: functional
Use µg/mL as the unit, but write only the number.

[Q] Look up MIC: `CC[C@H]1OC(=O)/C(C)=C/[C@H](C)[C@@H](O[C@@H]2O[C@H](C)C[C@H](N(C)C)[C@H]2O)[C@@](C)(OC)C[C@@H](C)C(=O)[C@H](C)[C@H]2N(CCc3ccc(O)cc3)C(=O)O[C@]12C`
[A] 16

[Q] What value of MIC has been recorded for this entry: `CC[C@H]1OC(=O)/C(C)=C/[C@H](C)[C@@H](O[C@@H]2O[C@H](C)C[C@H](N(C)C)[C@H]2O)[C@@](C)(OC)C[C@@H](C)C(=O)[C@H](C)[C@H]2N(CCc3ccc(N)cc3)C(=O)O[C@]12C`
[A] 32

[Q] Which MIC is reported for this compound? `CC[C@H]1OC(=O)/C(C)=C/[C@H](C)[C@@H](O[C@@H]2O[C@H](C)C[C@H](N(C)C)[C@H]2O)[C@@](C)(OC)C[C@@H](C)C(=O)[C@H](C)[C@H]2N(CCc3ccc(C)cc3)C(=O)O[C@]12C`
[A] 16

[Q] Fill in the blank: the reported MIC of `CC[C@H]1OC(=O)/C(C)=C/[C@H](C)[C@@H](O[C@@H]2O[C@H](C)C[C@H](N(C)C)[C@H]2O)[C@@](C)(OC)C[C@@H](C)C(=O)[C@H](C)[C@H]2N(CCc3ccc([N+](=O)[O-])cc3)C(=O)O[C@]12C` is ____.
[A] 16

[Q] Data request, read-out MIC, for `CC[C@H]1OC(=O)/C(C)=C/[C@H](C)[C@@H](O[C@@H]2O[C@H](C)C[C@H](N(C)C)[C@H]2O)[C@@](C)(OC)C[C@@H](C)C(=O)[C@H](C)[C@H]2N(CCCOc3ccncc3)C(=O)O[C@]12C`
[A] 16

[Q] Reported MIC, compound `CC[C@H]1OC(=O)/C(C)=C/[C@H](C)[C@@H](O[C@@H]2O[C@H](C)C[C@H](N(C)C)[C@H]2O)[C@@](C)(OC)C[C@@H](C)C2=NCCN3C(=O)O[C@@]1(C)[C@H]3[C@H]2C` : ____
[A] 16

[Q] Please look up its MIC: `CC[C@H]1OC(=O)/C(C)=C/[C@H](C)[C@@H](O[C@@H]2O[C@H](C)C[C@H](N(C)C)[C@H]2O)[C@@](C)(OC)C[C@@H](C)C(=O)[C@H](C)[C@H]2N(CCCOc3ccc4ccccc4c3)C(=O)O[C@]12C`
[A] 64
